// provenance: PubChem BioAssay (EPA / NIEHS)

Molecular target: guinea pig Leukotriene D4 Receptor (LTD4), CYSLTR1 (gene 100135514) (UniProt Q2NNR5)
Sequence (Q2NNR5 whole entry, looked up): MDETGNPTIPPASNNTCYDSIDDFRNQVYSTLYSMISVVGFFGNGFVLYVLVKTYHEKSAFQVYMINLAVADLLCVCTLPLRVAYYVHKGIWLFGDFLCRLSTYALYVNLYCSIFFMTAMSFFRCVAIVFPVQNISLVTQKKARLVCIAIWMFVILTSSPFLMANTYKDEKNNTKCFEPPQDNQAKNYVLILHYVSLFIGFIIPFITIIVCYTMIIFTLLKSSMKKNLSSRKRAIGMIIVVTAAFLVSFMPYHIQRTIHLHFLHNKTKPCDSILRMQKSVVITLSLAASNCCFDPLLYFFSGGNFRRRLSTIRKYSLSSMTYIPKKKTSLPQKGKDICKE
Assay: NVS_GPCR_gLTD4: NovaScreen (NVS) G Protein-Coupled Receptor Assay for guinea pig Leukotriene D4 Receptor (LTD4) (AID 2283248)
Inconclusive results are not listed. Activity calls are given as the source filed them. Rule for the calls: active = hit-call score of the fitted dose curve at least 0.9, where 1 is the maximum; inconclusive = response in the unintended direction; inactive = score below 0.9.
The reply should be one of these categories: active, inactive

O=c1oc2ccccc2c(O)c1C(CC(O)c1ccc(-c2ccc(Br)cc2)cc1)c1ccccc1 (centres undefined); active
O=C(O)C1(c2ccc3c(c2)OC[C@H](Cc2ccc(-c4ccccc4)cc2)[C@H]3O)CCCC1; inactive
CCOC(=O)CC(=O)CCl; inactive

Query block: Per the assay record, what outcome was assigned to CCCCCCCCCCCCc1cccc(S(=O)(=O)O)c1 ?
Result block: active
